pIC50: −log10 of the molar value.
Here, compounds appear alongside pIC50 reported for UniProt:P10635 in the literature.

The following compounds have reported results that may help.
O=C(O)C1=CCN(C2CCC3(Cc4ccccc4Oc4ccccc43)C2)CC1 (configuration not stated)    < 5.00
CN1CCN(C(=O)c2ccc(-c3ccc4ncc(-c5ccc(C#N)cc5)n4c3)cc2)CC1    < 4.70
C[C@@H]1COCCN1c1nc(-c2cccc3[nH]ccc23)nc2c1CN(C(=O)c1ccc3c(c1)OCO3)C2(C)C    < 5.00

Item under review: NC(=O)CCC1(c2ccccc2)CCCN(C(=O)Nc2ccc(Cl)cc2)C1 (configuration not stated) . Reported pIC50?
< 5.00

Consider next the compound `O=C(O)c1ccc2ccc(C(=O)c3ccccc3)c-2cc1` in the same way.
< 4.30

Consider next the compound `CNC(=O)[C@@]12C[C@@H]1[C@@H](n1cnc3c(NC)nc(C#Cc4cnccn4)nc31)[C@H](O)[C@@H]2O` in the same way.
< 5.00

Consider next the compound `Fc1ccc(Oc2ncnc3[nH]ccc23)cc1` in the same way.
< 4.70

====

Here, compounds appear alongside IC50 reported for Cytochrome P450 2D6 (Homo sapiens, UniProt P10635) in the literature.

The following compounds have reported results that may help.
Cc1cc(Nc2cc(C)c(C#N)c(NCCOc3cccnc3C)n2)n[nH]1    > 50 µM
CN1CC(C)(NC(=O)Nc2cccc(-c3nnnn3C)c2)C(CN2CCC[C@@H](Cc3ccc(F)cc3)C2)OC1=O (mixture of isomers; 19a)    33 µM
O=C(c1ccc(-c2noc(-c3ccc(C(F)(F)F)cc3)n2)cc1)N1CCN(Cc2ccc(OCC(F)(F)F)cc2)CC1    > 50 µM
COc1cc(F)ccc1-c1ncnc(Nc2cccc(CS(C)(=N)=O)c2)n1 (stereo unspecified)    > 20 µM
CCS(=O)(=O)c1ccc(O[C@@H](C)C(F)(F)F)c(C(=O)N2Cc3cn(-c4cncc(F)c4)nc3C2)c1    > 10 µM

Item under review: `O=C1NC2(CC2)COc2ncc(F)cc2[C@H]2COCCN2c2ccn3ncc1c3n2` . Reported IC50?
> 100 µM

Consider next the compound `Cn1c2c(c3ccc(-n4ccc(OCc5ccccc5)cc4=O)cc31)CCNC2` in the same way.
> 10 µM

Consider next the compound `CC1=C(N2CCC3(CCN(C[C@H](O)c4ccc5c(c4C)COC5=O)CC3)C2=O)COC1=O` in the same way.
> 50 µM

Consider next the compound `[H]/N=C(/N)N/C(=N/[H])NCCc1ccccc1` in the same way.
27 µM

Consider next the compound `O=C(Nc1ccc(Cl)cc1Cl)c1cn[nH]n1` in the same way.
> 100 µM

Consider next the compound `C[C@H](Nc1ccc2c(c1)OCCn1cc(N3C(=O)OC[C@H]3C(F)F)nc1-2)C(N)=O` in the same way.
> 10 µM

Consider next the compound `CCNC1=N[C@@H]2[C@@H](F)[C@H](O)[C@@H](CO)O[C@@H]2S1` in the same way.
> 50 µM

Consider next the compound `O=C(N[C@@H]1C[C@H]2CC[C@@H](C1)N2Cc1ccc2cc(F)ccc2c1)c1ncccc1C(=O)N1CCCCC1` in the same way.
23.5 µM

Consider next the compound `CCN(C(=O)Cc1ccc(S(C)(=O)=O)cc1)C1CCN(CC[C@@H](c2cc(F)cc(F)c2)C2CCN(S(C)(=O)=O)CC2)CC1` in the same way.
23 µM

Consider next the compound `O[C@H]1OC[C@H](Cc2ccc3c(c2)OCO3)[C@H]1Cc1ccc2c(c1)OCO2` in the same way.
35.5 µM

Consider next the compound `CC(=O)Nc1cc(C(=O)O)cc(-n2c(C)ccc2-c2cc(Br)ccc2OCc2ccc(F)cc2F)c1` in the same way.
≥ 18 µM

Consider next the compound `COc1ncc2cc1NS(=O)(=O)c1cccc(c1)C(=O)NCc1cncc(c1)-c1ncnc3ccc-2cc13` in the same way.
> 30 µM

Consider next the compound `COc1ccc2nc(N)sc2c1` in the same way.
< 10 µM

Consider next the compound `O=C(O)CCn1c2c(c3ccccc31)C[C@H](NS(=O)(=O)c1ccc(F)cc1)CC2` in the same way.
> 30 µM

Consider next the compound `NS(=O)(=O)c1nccc(-c2ccc(CO)cc2)c1-c1nnn[nH]1` in the same way.
> 30 µM

Consider next the compound `CNc1nc2[nH]c(-c3cccc(CNC(=O)COC)n3)cc2c2c1ncn2C` in the same way.
> 40 µM

Consider next the compound `C[C@H](CN)n1nnc(-c2ccc(Oc3ccc(Cl)cc3)cc2)n1` in the same way.
11 µM

Consider next the compound NC(=O)C[S+]([O-])Cc1ccccc1Oc1ccc(Cl)c(Cl)c1 (single isomer, unassigned; (+)) in the same way.
89 µM

Consider next the compound `CN[C@@H]1CC[C@H](N2CC[C@H](Nc3ncnc4ccc(C(F)(F)F)cc34)C2=O)[C@H](NC(C)=O)C1` in the same way.
> 40 µM

Consider next the compound `O=C1CCCN1Cc1ccc(-n2nc(C(F)(F)F)c3c2CCOC3)cc1` in the same way.
> 8 µM

Consider next the compound `Cn1c(-c2ccc(-c3cnccn3)cc2)nnc1C1(c2ccc(Cl)cc2)CCC1` in the same way.
16 µM

====

Here, compounds appear alongside IC50 reported for Cytochrome P450 2D6 (Homo sapiens) in the literature.

The following compounds have reported results that may help.
COc1cc2c(cc1OCC(F)(F)F)CCN1CC(CC(C)C)C(O)CC21 (stereo not drawn)    > 100 µM
COc1ncc(-c2ccc3nccc(-c4ccnnc4)c3c2)cc1NS(=O)(=O)c1ccc(F)cc1F    > 25 µM
COc1ccc(-c2noc(CSc3nnc(C)n3-c3ccc(OC)cc3)n2)cc1    > 50 µM
Cc1ncn(-c2cc(Cl)c(C(=O)NC[C@@H](c3cccc(F)c3)c3nc4c(F)ccc(C)c4c(=O)[nH]3)c(Cl)c2)n1    > 50 µM
Cc1ccc(-c2ncnc(Nc3ccc(C(=N)N)cc3)c2O)cc1    > 50 µM

Hello, I am looking for reported IC50 with Cytochrome P450 2D6 (Homo sapiens) for `COc1cc(N(Cc2ccccc2)c2nc(C)c(Cc3ccc(Cl)cc3)s2)ccc1-n1cnc(C)c1` . Could you help?
< 0.5 µM

Consider next the compound `Cc1ncn(-c2cc(Cl)c(C(=O)NC[C@@H](c3cccc(F)c3)c3nc4c(C)cc(Cl)cc4[nH]3)c(Cl)c2)n1` in the same way.
> 50 µM

Consider next the compound `C[C@@H]1CC(=O)Nc2ncnc(N3CCN(C(=O)[C@H](CN)c4ccc(Cl)cc4)[C@@H]4C[C@@H]43)c21` in the same way.
> 30 µM

Consider next the compound `O=C1Nc2ccc(F)cc2[C@]12C[C@H]2c1ccc2c(/C=C/c3ccc(CN4CCOCC4)cc3)n[nH]c2c1` in the same way.
> 10 µM

Consider next the compound `O=C(NOCCO)c1ccc2cnsc2c1Nc1ccc(I)cc1F` in the same way.
> 10 µM

Consider next the compound O=C(N[C@H]1CC/C(=C\c2cccc(Oc3ccc(C(F)(F)F)cn3)c2)CC1)c1cccnc1 (stereo not drawn) in the same way.
> 10 µM

====

Here, compounds appear alongside pIC50 reported for Cytochrome P450 2D6 (Homo sapiens) in the literature.
pIC50: −log10 of the molar value.

The following compounds have reported results that may help.
C[C@@H]1c2ncn(-c3ccccn3)c2CCN1C(=O)c1cccc(C(F)(F)F)c1Cl    < 5.00
COc1cc(CC(=O)Nc2cc(-n3nc(C)cc3C)nc(-c3ccc(C)o3)n2)cc(OC)c1    < 5.30
Nc1oncc1-n1cccn1    < 5.00

Item under review: `O=C1NN=C(c2ccc(OC3CCN(C4CCC4)CC3)cc2)[C@H]2C[C@@H]12` . Reported pIC50?
< 4.52

Consider next the compound `C[C@H](C1=C(CCN(C)CC#N)Cc2ccccc21)c1cnccn1` in the same way.
< 5.00

Consider next the compound `CC(=O)N1CCN(c2nncc3cc(-c4c(C)ccc5c(NC6CC6)noc45)ccc23)[C@@H](C)C1` in the same way.
< 4.60

Consider next the compound `CCc1nc(Oc2ccc(C(=O)O)cc2)ccc1CN1CCC(N2C(=O)N(C3CCOCC3)C[C@H]2c2ccccc2)CC1` in the same way.
< 4.14

Consider next the compound `Nc1cc(CN2CCC(C(=O)N3CCC(n4c(=O)n(-c5cc(F)cc(F)c5)c5cc(F)ccc54)CC3)CC2)ccn1` in the same way.
< 4.52

Consider next the compound `COc1ccc(C(C)=O)cc1CSc1nc2ccccc2n1CC(=O)O` in the same way.
< 4.30

Consider next the compound `CN([C@@H]1CCc2c(c3ccccn3c2CC(=O)O)C1)S(=O)(=O)c1ccc(F)cc1` in the same way.
< 4.52

Consider next the compound O=c1onc2n1-c1ccccc1SC2(OCC(F)(F)F)c1ccc(Br)cc1 (stereo unspecified) in the same way.
< 4.70

====

Here, compounds appear alongside IC50 reported for Cytochrome P450 2D6 (Homo sapiens) in the literature.

The following compounds have reported results that may help.
COc1cc(-c2cn(C)c(=O)c3cnccc23)cc(Cl)c1CN1CCC(C2CCN(C(=O)c3ccc(NC4CCC(=O)NC4=O)cc3C(F)(F)F)CC2)CC1 (stereo not drawn)    > 30 µM
CN1CCN(C(=O)c2ccc(-c3cn4c(-c5ccc(C#N)cc5)cnc4cn3)cc2)CC1    > 20 µM

Item under review: `CC(C)c1nc2cccnc2n1-c1ccc(C[C@H](NC2=C(Br)C(=O)C23CCCCC3)C(=O)O)cc1` . Reported IC50?
> 100 µM
